Values were extracted from paper PMC12390684.

STUDY_SYSTEM: IN-GCN2 interaction (6xHis-IN / GST-GCN2) (UniProt P04585+Q9P2K8)
Sequence (Q9P2K8 192-1024, other chains not shown): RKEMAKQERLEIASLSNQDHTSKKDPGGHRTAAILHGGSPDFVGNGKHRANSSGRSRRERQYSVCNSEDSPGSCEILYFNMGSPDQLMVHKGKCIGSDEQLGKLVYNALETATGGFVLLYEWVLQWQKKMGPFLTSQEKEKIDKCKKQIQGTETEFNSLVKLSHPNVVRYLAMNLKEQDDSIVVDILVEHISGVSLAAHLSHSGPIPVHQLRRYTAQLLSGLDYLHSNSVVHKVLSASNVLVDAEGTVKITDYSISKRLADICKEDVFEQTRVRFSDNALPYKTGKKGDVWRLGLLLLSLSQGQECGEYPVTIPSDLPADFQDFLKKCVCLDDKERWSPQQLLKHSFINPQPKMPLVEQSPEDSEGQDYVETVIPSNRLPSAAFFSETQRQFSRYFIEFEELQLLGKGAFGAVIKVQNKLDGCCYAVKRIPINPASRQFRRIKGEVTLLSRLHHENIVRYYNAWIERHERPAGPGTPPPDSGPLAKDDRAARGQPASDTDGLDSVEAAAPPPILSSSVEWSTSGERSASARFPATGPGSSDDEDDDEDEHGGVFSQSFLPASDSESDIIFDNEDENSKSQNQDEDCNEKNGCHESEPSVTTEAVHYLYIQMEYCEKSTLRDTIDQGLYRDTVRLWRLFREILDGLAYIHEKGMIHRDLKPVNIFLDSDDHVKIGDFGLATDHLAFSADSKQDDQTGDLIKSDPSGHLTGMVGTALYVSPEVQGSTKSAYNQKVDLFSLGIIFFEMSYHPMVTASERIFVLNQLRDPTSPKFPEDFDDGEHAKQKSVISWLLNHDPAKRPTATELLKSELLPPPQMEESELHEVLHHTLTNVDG
ASSAY_PROCEDURE: biochemical
Format: binding, HIV-1 IN; human GCN2
COND: screen, single dose 100 µM, single replicate; residual AlphaLISA signal normalized to DMSO control
# IN-GCN2 interaction (%) values compiled below
A number alone suffices; assume %.

Example entries begin here.
# MOLECULE, IN-GCN2 interaction (%)
measured = [
    ("COc1cc2c3c(c4ccc(OC)c(OC)c4c2cc1OC)CN1CCC[C@@H]1C3", 110.26),
    ("O=c1[nH]c(=O)c2[nH]cnc2[nH]1", 105.35),
    ("COC(=O)[C@H]1[C@H]2C[C@H]3c4[nH]c5ccccc5c4CCN3C[C@@H]2CC[C@@H]1O", 114.25),
    ("O=C(O)c1cc(O)c(O)c(O)c1", 83.04),
    ("COc1cc2c(cc1OC)CN1CCc3cc(OC)c(OC)cc3C1C2 (stereo not shown)", 96.86),
    ("COc1cc2c(cc1OC)C13CCN4CC5=CCOC(CC(=O)O)C(C5CC41)C3N2 (stereo not shown)", 122.60),
]

Pending molecule:
Look up IN-GCN2 interaction (%) for this molecule: CSC[S@@+]([O-])CC(CO)NC(=O)/C=C/c1c(C)[nH]c(=O)[nH]c1=O (stereo partly shown)
102.04

----------
STUDY_SYSTEM: IN-GCN2 interaction (6xHis-IN / GST-GCN2) (UniProt P04585+Q9P2K8)
ASSAY_PROCEDURE: biochemical
Format: binding, HIV-1 IN; human GCN2
COND: screen, single dose 100 µM, single replicate; residual AlphaLISA signal normalized to DMSO control
MEASURED_ENDPOINT: IN-GCN2 interaction (%)
A number alone suffices; assume %.

# COMPOUND, STUDY_SYSTEM, U, IN-GCN2 interaction (%)
data = [
    ("COc1ccc2c(c1OC)-c1c(OC)c(OC)cc3c1[C@H](C2)NCC3", "IN-GCN2 interaction (6xHis-IN / GST-GCN2) (UniProt P04585+Q9P2K8)", "%", 70.21),
    ("COc1c(O)ccc2c1-c1c3c(cc4c1[C@H](C2)NCC4)OCO3", "IN-GCN2 interaction (6xHis-IN / GST-GCN2) (UniProt P04585+Q9P2K8)", "%", 69.85),
    ("C[C@@H]1O[C@@H](O[C@@H]2C=C3CC[C@@H]4[C@H](CC[C@]5(C)[C@@H](c6ccc(=O)oc6)CC[C@]45O)[C@@]3(C)CC2)[C@H](O)[C@H](O)[C@H]1O[C@@H]1O[C@H](CO)[C@@H](O)[C@H](O)[C@H]1O", "IN-GCN2 interaction (6xHis-IN / GST-GCN2) (UniProt P04585+Q9P2K8)", "%", 99.88),
]

Look up IN-GCN2 interaction (%) for this compound: CC(=O)OC1C(OC(C)=O)C2C(C)CC3OC(=O)C(C)C3CC2(C)C1OC(C)=O (stereo not shown)
100.86

Look up IN-GCN2 interaction (%) for this compound: CC1=CC2=C(C=O)C(=O)[C@](C)(O)[C@@H](O)C2=CO1
82.72

Look up IN-GCN2 interaction (%) for this compound: O=[N+]([O-])[O-].c1ccc2c(c1)[nH]c1c2cc[n+]2cc3c(cc12)CCCC3
107.16

----------
STUDY_SYSTEM: IN-GCN2 interaction (6xHis-IN / GST-GCN2) (UniProt P04585+Q9P2K8)
ASSAY_PROCEDURE: biochemical
Type: binding, HIV-1 IN; human GCN2
COND: screen, single dose 100 µM, single replicate; residual AlphaLISA signal normalized to DMSO control
# IN-GCN2 interaction (%) values compiled below
A number alone suffices; assume %.

Example entries begin here.
# COMPOUND, STUDY_SYSTEM, REPORTED_VALUE
measured = [
    ("CC[C@@]1(O)C[C@H](O[C@H]2C[C@H](N(C)C)[C@H](O[C@H]3C[C@H](O)[C@H](O[C@H]4CCC(=O)[C@H](C)O4)[C@H](C)O3)[C@H](C)O2)c2c(cc3c(c2O)C(=O)c2c(O)cccc2C3=O)[C@H]1C(=O)OC", "IN-GCN2 interaction (6xHis-IN / GST-GCN2) (UniProt P04585+Q9P2K8)", 28.46),
    ("CC1=C[C@H](O)[C@@H](O)[C@]2(C)[C@H]3[C@@]4(O)OC[C@@]35[C@@H](C[C@@H]12)OC(=O)C[C@H]5[C@@H](C)[C@H]4O", "IN-GCN2 interaction (6xHis-IN / GST-GCN2) (UniProt P04585+Q9P2K8)", 87.44),
    ("C[C@@H]1[C@H](O)[C@@H](C)/C=C/C=C/CC/C=C/C=C/C=C/C=C/C(O[C@H]2O[C@H](C)[C@@H](O)[C@H](N)[C@@H]2O)CC2O[C@](O)(CC(O)C(O)CCC(O)CC(O)CC(O)CC(=O)O[C@H]1C)CC(O)C2C(=O)O (stereo partly shown)", "IN-GCN2 interaction (6xHis-IN / GST-GCN2) (UniProt P04585+Q9P2K8)", 68.70),
]

Pending compound:
Look up IN-GCN2 interaction (%) for this compound: CC(CCC/C=C/CCCN(C)C(=N)N)CC(C)C1OC(=O)C(C)C(O)/C=C/C(C)C(O)C(C)C(O)C(C)C(O)CCCC(O)CC2(O)OC(CC(OC(=O)CC(=O)O)CC(O)CC(O)C(C)C(O)/C=C/C=C/C1C)CC(O)C2O (stereo not shown)
57.24
